Source listed as patent US20240336574A1.

Molecular target: recombinant human NaV1.8 stably transfected HEK cells (Homo sapiens)
Construct: expressed in transfected cells; host or cells: HEK cells, stably transfected
Experiment: Compound profiling on NaV1.8, human NaV1.8 cell line, SyncroPatch384PE automated patch clamp assay (Example 115, third set of compounds, Table 27)
Format: cell-based
Settings: inactivated state block (P2 measurement), human NaV1.8 HEK cells, Table 27 (third set of compounds), read-out: P2 IC50
pIC50: −log10 of the molar value.
Items are presented alongside their recorded pIC50.

# COMPOUND, pIC50
data = [
    ("COc1cc(F)ccc1Oc1nnc(C(F)(F)F)cc1C(=O)Nc1ccn2cnnc2c1 [Compound 21]", "6.00 to 6.30"),
    ("CCOc1cc(F)ccc1Oc1nnc(C)cc1C(=O)Nc1cccc(S(C)(=N)=O)c1 (centres unmarked) [Compound 95]", "< 5.30"),
    ("COC(=O)c1cncc(NC(=O)c2cc(C(F)(F)F)nnc2Oc2ccc(F)cc2OC)n1 [Compound 46]", "< 5.30"),
    ("Cc1cc(F)ccc1Oc1nnc(C(F)(F)F)cc1C(=O)Nc1ccc(=O)[nH]c1C [Compound 92]", "< 5.30"),
    ("Cc1ccc(F)cc1Oc1nnc(C(F)(F)F)cc1C(=O)Nc1cc(S(C)(=O)=O)ccc1F [Compound 71]", "< 5.30"),
    ("COc1cc(F)ccc1Oc1nnc(C)cc1C(=O)Nc1cccc(S(C)(=N)=O)c1 (centres unmarked) [Compound 94]", "< 5.30"),
    ("Cc1cc(F)ccc1Oc1nnc(C(F)(F)F)cc1C(=O)Nc1ccc[n+]([O-])c1 [Compound 61]", "< 5.30"),
    ("COc1ccc(Oc2nnc(C(F)(F)F)cc2C(=O)Nc2cccc(S(C)(=O)=O)c2)c(C)c1 [Compound 53]", "≥ 6.70"),
]

###

Target: recombinant human NaV1.8 stably transfected HEK cells (Homo sapiens, UniProt Q9Y5Y9)
Construct: expressed in transfected cells; host or cells: HEK cells, stably transfected
Sequence (Q9Y5Y9 whole entry): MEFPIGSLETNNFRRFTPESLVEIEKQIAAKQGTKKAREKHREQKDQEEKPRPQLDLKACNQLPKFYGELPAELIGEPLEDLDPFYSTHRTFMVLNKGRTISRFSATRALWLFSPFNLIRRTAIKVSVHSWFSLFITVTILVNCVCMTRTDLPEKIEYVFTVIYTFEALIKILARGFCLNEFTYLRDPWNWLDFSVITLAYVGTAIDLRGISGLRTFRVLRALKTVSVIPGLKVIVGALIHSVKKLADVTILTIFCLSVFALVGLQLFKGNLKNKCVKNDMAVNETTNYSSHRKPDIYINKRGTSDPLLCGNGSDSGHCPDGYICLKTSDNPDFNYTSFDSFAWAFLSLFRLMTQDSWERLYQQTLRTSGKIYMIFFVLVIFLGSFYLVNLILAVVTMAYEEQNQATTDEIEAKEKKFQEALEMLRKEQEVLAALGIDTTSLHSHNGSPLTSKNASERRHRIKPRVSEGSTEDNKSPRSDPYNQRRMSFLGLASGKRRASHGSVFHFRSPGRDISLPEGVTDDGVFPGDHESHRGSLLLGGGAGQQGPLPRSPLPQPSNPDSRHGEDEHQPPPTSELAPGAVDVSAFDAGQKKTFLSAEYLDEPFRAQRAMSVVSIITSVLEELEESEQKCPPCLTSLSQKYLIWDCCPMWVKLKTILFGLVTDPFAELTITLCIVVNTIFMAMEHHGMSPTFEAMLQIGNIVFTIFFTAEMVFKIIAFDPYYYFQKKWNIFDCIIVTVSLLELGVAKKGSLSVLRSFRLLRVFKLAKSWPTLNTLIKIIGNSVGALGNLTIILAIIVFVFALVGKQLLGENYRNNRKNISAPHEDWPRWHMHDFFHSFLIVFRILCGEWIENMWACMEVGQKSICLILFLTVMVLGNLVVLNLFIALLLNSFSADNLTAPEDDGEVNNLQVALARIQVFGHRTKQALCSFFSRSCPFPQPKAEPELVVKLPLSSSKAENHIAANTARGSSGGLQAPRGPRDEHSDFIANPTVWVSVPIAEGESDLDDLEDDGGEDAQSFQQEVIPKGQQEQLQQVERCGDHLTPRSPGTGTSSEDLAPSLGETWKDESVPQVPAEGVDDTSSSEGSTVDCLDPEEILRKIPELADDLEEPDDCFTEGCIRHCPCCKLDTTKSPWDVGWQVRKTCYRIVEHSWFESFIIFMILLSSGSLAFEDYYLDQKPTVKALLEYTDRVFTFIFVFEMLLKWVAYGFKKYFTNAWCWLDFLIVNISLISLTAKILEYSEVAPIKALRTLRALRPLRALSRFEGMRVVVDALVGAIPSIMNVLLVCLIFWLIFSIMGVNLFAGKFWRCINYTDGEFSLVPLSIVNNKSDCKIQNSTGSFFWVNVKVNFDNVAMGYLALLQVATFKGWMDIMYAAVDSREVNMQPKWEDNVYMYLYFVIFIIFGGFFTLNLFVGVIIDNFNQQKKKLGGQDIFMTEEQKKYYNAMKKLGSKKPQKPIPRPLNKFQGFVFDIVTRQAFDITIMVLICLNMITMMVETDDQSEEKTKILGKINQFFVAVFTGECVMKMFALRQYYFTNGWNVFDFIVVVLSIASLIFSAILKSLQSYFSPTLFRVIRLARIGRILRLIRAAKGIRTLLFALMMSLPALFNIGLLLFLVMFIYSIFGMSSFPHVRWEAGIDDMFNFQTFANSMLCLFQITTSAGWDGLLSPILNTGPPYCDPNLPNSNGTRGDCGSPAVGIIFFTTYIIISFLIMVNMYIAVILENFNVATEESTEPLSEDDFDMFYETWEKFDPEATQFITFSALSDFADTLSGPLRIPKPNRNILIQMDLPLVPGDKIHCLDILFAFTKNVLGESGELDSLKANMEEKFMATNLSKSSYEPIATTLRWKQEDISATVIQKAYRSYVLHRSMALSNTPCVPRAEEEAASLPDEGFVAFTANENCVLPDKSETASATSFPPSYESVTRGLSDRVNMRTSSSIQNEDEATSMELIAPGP
Assay: Compound profiling on NaV1.8, human NaV1.8 cell line, SyncroPatch384PE automated patch clamp assay (Example 115, third set of compounds, Table 27)
Format: cell-based
Conditions: inactivated state block (P2 measurement), human NaV1.8 HEK cells, Table 27 (third set of compounds), read-out: P2 IC50
Items are presented alongside their recorded IC50.

# COMPOUND, IC50
data = [
    ("Cc1cc(-c2cn[nH]c2)ccc1Oc1nnc(C(F)(F)F)cc1C(=O)Nc1cccc(S(C)(=O)=O)c1 [Compound 133]", "> 5 µM"),
    ("COc1ccc(F)cc1Oc1nnc(C(F)(F)F)cc1C(=O)Nc1cccc(C(N)=O)c1 [Compound 80]", "0.501 to 1 µM"),
    ("COc1cc(C#N)ccc1Oc1nnc(C(F)(F)F)cc1C(=O)Nc1cccc(S(C)(=O)=O)c1 [Compound 75]", "≤ 0.2 µM"),
    ("CS(=N)(=O)c1cc(NC(=O)c2cc(C(F)(F)F)nnc2Oc2ccc(F)cc2Cl)ccn1 (centres unmarked) [Compound 97]", "1 to 5 µM"),
    ("Cc1cc(C#N)ccc1Oc1nnc(C(F)(F)F)cc1C(=O)Nc1cccc(S(C)(=N)=O)c1 (centres unmarked) [Compound 114]", "≤ 0.2 µM"),
    ("Cc1cc(C#N)ccc1Oc1nnc(C(F)(F)F)cc1C(=O)Nc1cccc(S(C)(=O)=O)c1 [Compound 78]", "> 5 µM"),
    ("COc1cc(NC(=O)c2cc(C(F)(F)F)nnc2Oc2ccc(F)cc2C)c(C)cn1 [Compound 29]", "> 5 µM"),
    ("CSc1cccc(NC(=O)c2cc(C(F)(F)F)nnc2Oc2cc(F)ccc2Cl)c1 [Compound 111]", "> 5 µM"),
]
